# Test protocol: Human liver microsome assay
# Type: in vitro ADME
# Experimental parameters: 1 uM substrate, 0.5 mg/mL liver microsome, 2 mM NADPH, 37° C., referenced against time zero control
Observation type: HLM: percent unchanged after 30 min (%)
One number for each entry, in %.

1) Cc1cc(F)ccc1Oc1cc(Cl)ccc1C(=O)Nc1cccc(S(N)(=O)=O)c1
94

Give HLM: percent unchanged after 30 min for each of the items listed below.
1. NS(=O)(=O)c1cccc(NC(=O)c2cc(Cl)ccc2Oc2ccc(F)cc2)c1
2. NS(=O)(=O)c1cccc(NC(=O)c2ccc(OC(F)(F)F)cc2Oc2ccc(F)cc2Cl)c1

Reply:
[107, 102]

Give HLM: percent unchanged after 30 min for each of the items listed below.
1. COc1ccc(Oc2cc(C(F)(F)C(F)(F)F)ccc2C(=O)Nc2cccc(S(N)(=O)=O)c2)c(Cl)c1
2. COc1ccc(Oc2cc(Cl)cc(Cl)c2C(=O)Nc2cccc(S(N)(=O)=O)c2)c(F)c1

Reply:
67
63

Ask: Consider the compound COc1cc(F)ccc1Oc1cc(Cl)cc(Cl)c1C(=O)Nc1cccc(S(N)(=O)=O)c1 and give its measured HLM: percent unchanged after 30 min.
Reply: 91
